Data credit: patent US20260242735A1

biological target: human CD33 variant Y49P (human, UniProt P20138 18-364); assay: flow cytometry, IgG on cells expressing the mutant
Sequence (P20138 18-364 Y49P limits assumed): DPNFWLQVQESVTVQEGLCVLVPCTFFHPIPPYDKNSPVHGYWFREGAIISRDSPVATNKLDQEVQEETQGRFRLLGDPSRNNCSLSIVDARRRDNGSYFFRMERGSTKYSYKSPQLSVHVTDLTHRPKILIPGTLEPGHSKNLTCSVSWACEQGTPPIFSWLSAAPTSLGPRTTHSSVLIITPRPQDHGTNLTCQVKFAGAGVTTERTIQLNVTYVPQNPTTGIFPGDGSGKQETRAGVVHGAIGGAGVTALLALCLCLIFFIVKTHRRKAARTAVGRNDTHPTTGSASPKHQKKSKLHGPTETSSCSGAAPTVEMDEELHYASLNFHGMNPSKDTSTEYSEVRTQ
Kindly state Mean % WT Binding for each of the entries shown.

Query: Param item = Refmab #1 (antibody, human IgG1, V domains shown, Tested in IgG format; human IgG1 (Absolute Antibody hP67.6, Cat. No. Ab00283-10.0); also called hP67.6) VH: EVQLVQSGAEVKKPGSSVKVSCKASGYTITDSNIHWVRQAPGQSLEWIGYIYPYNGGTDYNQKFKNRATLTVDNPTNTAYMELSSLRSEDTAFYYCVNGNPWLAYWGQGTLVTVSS VL: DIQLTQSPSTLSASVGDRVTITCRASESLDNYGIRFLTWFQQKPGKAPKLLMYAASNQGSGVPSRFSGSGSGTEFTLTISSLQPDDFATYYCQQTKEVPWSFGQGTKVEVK ; retrieve measured Mean % WT Binding.
Reply: 92.5 % of WT

Query: Quick one: Mean % WT Binding of Refmab #2 (antibody, human IgG1, V domains shown, Tested in IgG format; human IgG1 Fc silent (PG-LALA)) VH: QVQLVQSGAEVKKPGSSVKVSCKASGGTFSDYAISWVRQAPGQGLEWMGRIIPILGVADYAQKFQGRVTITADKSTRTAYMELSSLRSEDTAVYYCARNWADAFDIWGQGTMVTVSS VL: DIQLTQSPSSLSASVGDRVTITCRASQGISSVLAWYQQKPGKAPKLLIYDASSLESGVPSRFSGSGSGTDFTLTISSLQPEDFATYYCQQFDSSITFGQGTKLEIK ?
Reply: 6.9 % of WT

Query: Which Mean % WT Binding is listed for Refmab #3 (antibody, human IgG1, V domains shown, Tested in IgG format; human IgG1 Fc silent (PG-LALA)) VH: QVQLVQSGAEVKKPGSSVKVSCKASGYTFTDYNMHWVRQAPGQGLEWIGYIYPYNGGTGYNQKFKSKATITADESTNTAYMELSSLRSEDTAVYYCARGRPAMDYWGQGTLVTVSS VL: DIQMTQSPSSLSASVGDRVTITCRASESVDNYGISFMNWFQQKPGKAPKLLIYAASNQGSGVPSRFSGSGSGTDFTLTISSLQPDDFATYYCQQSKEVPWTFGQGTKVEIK ?
Reply: 92.1 % of WT

Query: Given Refmab #4 (antibody, human IgG1, V domains shown, Tested in IgG format; human IgG1 Fc silent (PG-LALA)) VH: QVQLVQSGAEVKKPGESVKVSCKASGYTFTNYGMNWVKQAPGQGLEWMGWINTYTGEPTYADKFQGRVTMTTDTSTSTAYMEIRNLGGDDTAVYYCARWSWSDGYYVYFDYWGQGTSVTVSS VL: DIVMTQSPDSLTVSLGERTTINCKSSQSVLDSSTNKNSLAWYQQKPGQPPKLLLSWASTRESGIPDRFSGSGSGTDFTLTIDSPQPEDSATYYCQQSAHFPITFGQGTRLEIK , state its recorded Mean % WT Binding.
Reply: 1.2 % of WT
